Each item that follows carries a reported polymerase ribozyme fitness (log ratio).
B1: TPR 5TU (parent)
chain: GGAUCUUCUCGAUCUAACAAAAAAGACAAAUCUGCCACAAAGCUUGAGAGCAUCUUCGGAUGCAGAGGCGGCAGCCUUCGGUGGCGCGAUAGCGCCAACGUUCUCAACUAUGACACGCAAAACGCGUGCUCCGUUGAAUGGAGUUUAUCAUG

Variants of: B1
Test: polymerase ribozyme fitness, log enrichment relative to wild type (log ratio); higher = more active; in vitro selection for triplet polymerase activity
Variants at the floor of the assay were thinned out.
// keep it numeric: no unit symbol after the value

{"columns": ["Variant Label", "polymerase ribozyme fitness (log ratio)"],
 "data": [
  ["A52G G81A", -0.481],
  ["A41G G143U", -1.73],
  ["A23G A24U C27G U55A G92U", -3.98],
  ["C116G A120U", 0.554]
]}

Note: attention shifts to another entry.
# query: polymerase ribozyme fitness (log ratio) of entry C38U U53A C105U
0.169
